Data origin: the supplement of paper PMC9112550

Test system: Escherichia coli TOP10
experiment.summary: shrunken log2 fold change of peptide-encoding DNA abundance (4.5 h post-induction vs induction); higher = less antimicrobial activity (less host growth inhibition)
test.settings: time post-induction: 4.5 h; library: site-saturation at positions 5, 18, 19, 20
reported.metric: shrunken log2 fold change

Previously resolved entries follow.
Query block: Tell me shrunken log2 fold change reported for RRIRIRPPRLPRPRPRPQFSPRP
Result block: -0.371

Query block: Tell me shrunken log2 fold change reported for RRIRKRPPRLPRPRPRPEDLPRP
Result block: 1.8

Query block: Tell me shrunken log2 fold change reported for RRIRGRPPRLPRPRPRPVGPPRP
Result block: 0.762

Query block: Tell me shrunken log2 fold change reported for RRIRLRPPRLPRPRPRPNVPPRP
Result block: -0.213

Now take the following sequence into account.
Query block: Tell me shrunken log2 fold change reported for RRIRQRPPRLPRPRPRPQIPPRP
Result block: -0.214

###

System: Escherichia coli TOP10
experiment.summary: shrunken log2 fold change of peptide-encoding DNA abundance (4.5 h post-induction vs induction); higher = less antimicrobial activity (less host growth inhibition)
test.settings: time post-induction: 4.5 h; library: site-saturation at positions 5, 18, 19, 20
Listed next: entries and their corresponding shrunken log2 fold change.
Lab note: jot the number down without any unit.

Previously resolved entries follow.
Query block: Tell me shrunken log2 fold change reported for RRIRMRPPRLPRPRPRPAHGPRP
Result block: 0.226

Query block: Tell me shrunken log2 fold change reported for RRIRLRPPRLPRPRPRPRCAPRP
Result block: 0.504

Query block: Tell me shrunken log2 fold change reported for RRIRKRPPRLPRPRPRPPCGPRP
Result block: 0.614

Query block: Tell me shrunken log2 fold change reported for RRIRARPPRLPRPRPRPSEWPRP
Result block: 0.0632

Query block: Tell me shrunken log2 fold change reported for RRIRFRPPRLPRPRPRPKHYPRP
Result block: -0.271

Next:
Query block: Tell me shrunken log2 fold change reported for RRIRRRPPRLPRPRPRPMQIPRP
Result block: 0.58

Query block: Tell me shrunken log2 fold change reported for RRIRYRPPRLPRPRPRPCRMPRP
Result block: -0.0503

Query block: Tell me shrunken log2 fold change reported for RRIRNRPPRLPRPRPRPTDYPRP
Result block: -0.409

###

Tested on: Escherichia coli TOP10
experiment.summary: shrunken log2 fold change of peptide-encoding DNA abundance (4.5 h post-induction vs induction); higher = less antimicrobial activity (less host growth inhibition)
test.settings: time post-induction: 4.5 h; library: site-saturation at positions 5, 18, 19, 20
reported.metric: shrunken log2 fold change
Lab note: jot the number down without any unit.

Previously resolved entries follow.
Query block: Tell me shrunken log2 fold change reported for RRIRDRPPRLPRPRPRPMMFPRP
Result block: 0.43

Query block: Tell me shrunken log2 fold change reported for RRIRFRPPRLPRPRPRPSEPPRP
Result block: -0.0424

Query block: Tell me shrunken log2 fold change reported for RRIRNRPPRLPRPRPRPCRRPRP
Result block: -0.103

Query block: Tell me shrunken log2 fold change reported for RRIRRRPPRLPRPRPRPNPNPRP
Result block: 0.369

Query block: Tell me shrunken log2 fold change reported for RRIRWRPPRLPRPRPRPRTLPRP
Result block: 0.565

Query block: Tell me shrunken log2 fold change reported for RRIRVRPPRLPRPRPRPSEQPRP
Result block: -0.0241

Next:
Query block: Tell me shrunken log2 fold change reported for RRIRIRPPRLPRPRPRPVSCPRP
Result block: -0.0157

Query block: Tell me shrunken log2 fold change reported for RRIRCRPPRLPRPRPRPLCFPRP
Result block: -0.0241

Query block: Tell me shrunken log2 fold change reported for RRIRCRPPRLPRPRPRPDCEPRP
Result block: -0.0299

Query block: Tell me shrunken log2 fold change reported for RRIRYRPPRLPRPRPRPWPEPRP
Result block: -0.0592

Query block: Tell me shrunken log2 fold change reported for RRIRCRPPRLPRPRPRPVDMPRP
Result block: -0.247

Query block: Tell me shrunken log2 fold change reported for RRIRTRPPRLPRPRPRPYYTPRP
Result block: -0.336

###

Listed next: entries and their corresponding shrunken log2 fold change.
Test system: Escherichia coli TOP10
experiment.summary: shrunken log2 fold change of peptide-encoding DNA abundance (4.5 h post-induction vs induction); higher = less antimicrobial activity (less host growth inhibition)
test.settings: time post-induction: 4.5 h; library: site-saturation at positions 5, 18, 19, 20

Query block: Please indicate recorded shrunken log2 fold change of RRIRCRPPRLPRPRPRPRIFPRP measured with Escherichia coli TOP10.
Result block: -0.16

Query block: Please indicate recorded shrunken log2 fold change of RRIRGRPPRLPRPRPRPRNIPRP measured with Escherichia coli TOP10.
Result block: 0.0648

Query block: Please indicate recorded shrunken log2 fold change of RRIRTRPPRLPRPRPRPGKKPRP measured with Escherichia coli TOP10.
Result block: -0.0783

Query block: Please indicate recorded shrunken log2 fold change of RRIRMRPPRLPRPRPRPDWMPRP measured with Escherichia coli TOP10.
Result block: -0.0455

Query block: Please indicate recorded shrunken log2 fold change of RRIRRRPPRLPRPRPRPFNKPRP measured with Escherichia coli TOP10.
Result block: -0.712

Query block: Please indicate recorded shrunken log2 fold change of RRIRPRPPRLPRPRPRPPEPPRP measured with Escherichia coli TOP10.
Result block: 0.787

Query block: Please indicate recorded shrunken log2 fold change of RRIRARPPRLPRPRPRPWNWPRP measured with Escherichia coli TOP10.
Result block: 0.376

Query block: Please indicate recorded shrunken log2 fold change of RRIRCRPPRLPRPRPRPEEEPRP measured with Escherichia coli TOP10.
Result block: 0.375

Query block: Please indicate recorded shrunken log2 fold change of RRIRWRPPRLPRPRPRPCQHPRP measured with Escherichia coli TOP10.
Result block: -0.116

Query block: Please indicate recorded shrunken log2 fold change of RRIRIRPPRLPRPRPRPHIKPRP measured with Escherichia coli TOP10.
Result block: -1.12

Query block: Please indicate recorded shrunken log2 fold change of RRIRPRPPRLPRPRPRPPMAPRP measured with Escherichia coli TOP10.
Result block: 0.338

###

Test system: Escherichia coli TOP10
experiment.summary: shrunken log2 fold change of peptide-encoding DNA abundance (4.5 h post-induction vs induction); higher = less antimicrobial activity (less host growth inhibition)
test.settings: time post-induction: 4.5 h; library: site-saturation at positions 5, 18, 19, 20
reported.metric: shrunken log2 fold change
Lab note: jot the number down without any unit.

Previously resolved entries follow.
Query block: Tell me shrunken log2 fold change reported for RRIRPRPPRLPRPRPRPRYSPRP
Result block: -0.354

Query block: Tell me shrunken log2 fold change reported for RRIRHRPPRLPRPRPRPAILPRP
Result block: -0.171

Query block: Tell me shrunken log2 fold change reported for RRIRHRPPRLPRPRPRPWPVPRP
Result block: 0.155

Query block: Tell me shrunken log2 fold change reported for RRIRERPPRLPRPRPRPGFYPRP
Result block: 0.057

Now take the following sequence into account.
Query block: Tell me shrunken log2 fold change reported for RRIRFRPPRLPRPRPRPTEQPRP
Result block: -0.0361

###

Tested on: Escherichia coli TOP10
experiment.summary: shrunken log2 fold change of peptide-encoding DNA abundance (4.5 h post-induction vs induction); higher = less antimicrobial activity (less host growth inhibition)
test.settings: time post-induction: 4.5 h; library: site-saturation at positions 5, 18, 19, 20
Listed next: entries and their corresponding shrunken log2 fold change.

Query block: Please indicate recorded shrunken log2 fold change of RRIRRRPPRLPRPRPRPHVPPRP measured with Escherichia coli TOP10.
Result block: -0.148

Next:
Query block: Please indicate recorded shrunken log2 fold change of RRIRKRPPRLPRPRPRPAPLPRP measured with Escherichia coli TOP10.
Result block: 0.929

Query block: Please indicate recorded shrunken log2 fold change of RRIRPRPPRLPRPRPRPLPLPRP measured with Escherichia coli TOP10.
Result block: -0.128

###

Tested on: Escherichia coli TOP10;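 note: peptides expressed intracellularly from a pBAD plasmid library in pooled LB shake-flask culture, induced with 0.3% L-arabinose, DNA abundance read by NGS, three biological replicates, DESeq2 with apeglm shrinkage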
experiment.summary: shrunken log2 fold change of peptide-encoding DNA abundance (4.5 h post-induction vs induction); higher = less antimicrobial activity (less host growth inhibition)
test.settings: time post-induction: 4.5 h; library: site-saturation at positions 5, 18, 19, 20
Binary classification by shrunken log2 fold change, with 0.07 as an inclusive lower bound for Y; all other cases are N.

Here's what some known entries look like.
Query block: Reported shrunken log2 fold change reaches at least 0.07 for RRIRHRPPRLPRPRPRPEVEPRP ?
Result block: N

Query block: Reported shrunken log2 fold change reaches at least 0.07 for RRIRRRPPRLPRPRPRPLVNPRP ?
Result block: N

Query block: Reported shrunken log2 fold change reaches at least 0.07 for RRIRRRPPRLPRPRPRPIFDPRP ?
Result block: Y

Query block: Reported shrunken log2 fold change reaches at least 0.07 for RRIRHRPPRLPRPRPRPCFQPRP ?
Result block: N

Query block: Reported shrunken log2 fold change reaches at least 0.07 for RRIRDRPPRLPRPRPRPVHAPRP ?
Result block: Y

Query block: Reported shrunken log2 fold change reaches at least 0.07 for RRIRRRPPRLPRPRPRPLPKPRP ?
Result block: Y

Query block: Reported shrunken log2 fold change reaches at least 0.07 for RRIRDRPPRLPRPRPRPHDMPRP ?
Result block: N

Query block: Reported shrunken log2 fold change reaches at least 0.07 for RRIRDRPPRLPRPRPRPSDKPRP ?
Result block: N

Now for another entry.
Query block: Reported shrunken log2 fold change reaches at least 0.07 for RRIRERPPRLPRPRPRPHIKPRP ?
Result block: N
